Conditions: in methyl acetate, 308.15 K
measurement_kind: solubility (mole fraction)

Query: Return solubility (mole fraction) for the following compound: CC1=NN(c2ccccc2)C(=O)C1
Reply: 0.0299

====

Conditions: in isobutyl acetate, 298.15 K
measurement_kind: solubility (mole fraction)
I only need the number, thanks.

Query: Quick one: give measured solubility (mole fraction) for CC1=NN(c2ccccc2)C(=O)C1
Reply: 0.0142

====

Details: in isobutyl acetate, 303.15 K
measurement_kind: solubility (mole fraction)
Reply briefly: the number, and no unit.

Query: Consider the compound CC1=NN(c2ccccc2)C(=O)C1 . State its measured solubility (mole fraction).
Reply: 0.0162

====

Conditions: in n-hexane, 313.15 K
measurement_kind: solubility (mole fraction)
No unit in the answer, only the number.

Query: Fill in reported solubility (mole fraction) for this entry: CC1=NN(c2ccccc2)C(=O)C1
Reply: 0.00136

====

Conditions: in n-propyl acetate, 293.15 K
measurement_kind: solubility (mole fraction)

Query: Recall and state the measured solubility (mole fraction) for CC1=NN(c2ccccc2)C(=O)C1 .
Reply: 0.0197

====

Conditions: in 2-butanone, 303.15 K
measurement_kind: solubility (mole fraction)
Keep the answer to the number alone.

Query: Give me measured solubility (mole fraction), please, for this compound: CC1=NN(c2ccccc2)C(=O)C1
Reply: 0.0437

====

Conditions: in methyl acetate, 298.15 K
measurement_kind: solubility (mole fraction)

Query: Please list solubility (mole fraction) recorded for the compound CC1=NN(c2ccccc2)C(=O)C1
Reply: 0.0237

====

Conditions: in 1,2-dichloroethane, 303.15 K
measurement_kind: solubility (mole fraction)

Query: Please look at this molecule and report its solubility (mole fraction): CC1=NN(c2ccccc2)C(=O)C1
Reply: 0.0496

====

Conditions: in isopentanol, 283.15 K
measurement_kind: solubility (mole fraction)
Answer field: number only, no words.

Query: Fill in solubility (mole fraction) for record CC1=NN(c2ccccc2)C(=O)C1
Reply: 0.0191

====

Settings: in 1,2-dichloroethane, 318.15 K
measurement_kind: solubility (mole fraction)
Lab note: record just the number, no unit beside it.

Query: Could you please provide reported solubility (mole fraction) for CC1=NN(c2ccccc2)C(=O)C1 ? Thanks!
Reply: 0.0767

====

Settings: in isobutyl acetate, 328.15 K
measurement_kind: solubility (mole fraction)
Reply briefly: the number, and no unit.

Query: Identify measured solubility (mole fraction) associated with CC1=NN(c2ccccc2)C(=O)C1
Reply: 0.0367

====

Settings: in n-butyl acetate, 298.15 K
measurement_kind: solubility (mole fraction)
Returns: the value as a bare number; no unit string appended.

Query: Return solubility (mole fraction) for the following compound: CC1=NN(c2ccccc2)C(=O)C1
Reply: 0.0195

====

Details: in isobutyl acetate, 293.15 K
measurement_kind: solubility (mole fraction)
Just the number.

Query: Quickly give me recorded solubility (mole fraction) for CC1=NN(c2ccccc2)C(=O)C1
Reply: 0.0123

====

Details: in MIBK, 323.15 K
measurement_kind: solubility (mole fraction)
Reply briefly: the number, and no unit.

Query: Please supply the value of reported solubility (mole fraction) for the item CC1=NN(c2ccccc2)C(=O)C1
Reply: 0.0609

====

Settings: in MIBK, 308.15 K
measurement_kind: solubility (mole fraction)
Give a plain numeric answer without units written out.

Query: Return the recorded solubility (mole fraction) value; entry: CC1=NN(c2ccccc2)C(=O)C1
Reply: 0.0365

====

Conditions: in isobutyl acetate, 308.15 K
measurement_kind: solubility (mole fraction)
Quick one: just the number, no unit, thanks!

Query: Give the measured solubility (mole fraction) for CC1=NN(c2ccccc2)C(=O)C1
Reply: 0.0192

====

Conditions: in n-propyl acetate, 318.15 K
measurement_kind: solubility (mole fraction)

Query: Quote solubility (mole fraction) reported for CC1=NN(c2ccccc2)C(=O)C1 please.
Reply: 0.0451

====

Details: in methyl acetate, 293.15 K
measurement_kind: solubility (mole fraction)
// return a plain number; no unit text

Query: Read off the recorded solubility (mole fraction) for CC1=NN(c2ccccc2)C(=O)C1
Reply: 0.0201

====

Conditions: in ethyl lactate, 318.15 K
measurement_kind: solubility (mole fraction)
Enter the number alone.

Query: Specify solubility (mole fraction) for CC1=NN(c2ccccc2)C(=O)C1 and stop.
Reply: 0.0594

====

Settings: in 1,2-dichloroethane, 323.15 K
measurement_kind: solubility (mole fraction)
Keep it simple and answer with nothing but the number.

Query: Recall and state the measured solubility (mole fraction) for CC1=NN(c2ccccc2)C(=O)C1 .
Reply: 0.089

====

Settings: in isopropyl acetate, 293.15 K
measurement_kind: solubility (mole fraction)
Answer with a bare number; do not write a unit.

Query: Determine its reported solubility (mole fraction): CC1=NN(c2ccccc2)C(=O)C1
Reply: 0.0141

====

Settings: in methyl acetate, 313.15 K
measurement_kind: solubility (mole fraction)
Response field accepts a number only; no unit should be typed.

Query: Specify solubility (mole fraction) for CC1=NN(c2ccccc2)C(=O)C1 and stop.
Reply: 0.0349

====

Details: in isopentanol, 318.15 K
measurement_kind: solubility (mole fraction)
Write the number on its own, no unit after it.

Query: Note down solubility (mole fraction) recorded for CC1=NN(c2ccccc2)C(=O)C1
Reply: 0.0403

====

Conditions: in n-butyl acetate, 323.15 K
measurement_kind: solubility (mole fraction)

Query: Identify the reported solubility (mole fraction) for the following entry. CC1=NN(c2ccccc2)C(=O)C1
Reply: 0.0423

====

Settings: in MIBK, 303.15 K
measurement_kind: solubility (mole fraction)
The reply should be a number, written without any unit.

Query: Look up and state reported solubility (mole fraction) for CC1=NN(c2ccccc2)C(=O)C1
Reply: 0.0311

====

Conditions: in n-butyl acetate, 283.15 K
measurement_kind: solubility (mole fraction)
// print number alone

Query: Answer with the recorded solubility (mole fraction) of CC1=NN(c2ccccc2)C(=O)C1 only.
Reply: 0.0124

====

Details: in isopentanol, 293.15 K
measurement_kind: solubility (mole fraction)
Answer with a number only.

Query: Tell us which solubility (mole fraction) value is on record for CC1=NN(c2ccccc2)C(=O)C1
Reply: 0.023

====

Conditions: in methyl acetate, 318.15 K
measurement_kind: solubility (mole fraction)
Could you keep your reply to the number by itself?

Query: Give the reported value of solubility (mole fraction) for this record: CC1=NN(c2ccccc2)C(=O)C1
Reply: 0.0422

====

Details: in isopentanol, 313.15 K
measurement_kind: solubility (mole fraction)
Please give the numeric answer without any surrounding text.

Query: Return value of solubility (mole fraction) for input CC1=NN(c2ccccc2)C(=O)C1 , no commentary.
Reply: 0.0353

====

Conditions: in methyl acetate, 288.15 K
measurement_kind: solubility (mole fraction)
Give the figure only, with no unit attached.

Query: Provide one value: measured solubility (mole fraction) of CC1=NN(c2ccccc2)C(=O)C1
Reply: 0.0182

====

Settings: in n-hexane, 293.15 K
measurement_kind: solubility (mole fraction)
Lab note: write the figure by itself, no unit.

Query: Note down solubility (mole fraction) recorded for CC1=NN(c2ccccc2)C(=O)C1
Reply: 0.000394

====

Conditions: in 2-butanone, 283.15 K
measurement_kind: solubility (mole fraction)
Lab note: jot down the number only; don't add units.

Query: Output solubility (mole fraction) of CC1=NN(c2ccccc2)C(=O)C1
Reply: 0.02

====

Details: in 2-butanone, 318.15 K
measurement_kind: solubility (mole fraction)
Number only, please.

Query: Please indicate solubility (mole fraction) recorded for CC1=NN(c2ccccc2)C(=O)C1
Reply: 0.081

====

Details: in 1,2-dichloroethane, 313.15 K
measurement_kind: solubility (mole fraction)
Answer with a number only.

Query: Give a short answer stating reported solubility (mole fraction) for CC1=NN(c2ccccc2)C(=O)C1 .
Reply: 0.0676

====

Details: in methyl acetate, 303.15 K
measurement_kind: solubility (mole fraction)

Query: Please give measured solubility (mole fraction) of the following entry: CC1=NN(c2ccccc2)C(=O)C1
Reply: 0.0266

====

Conditions: in 2-butanone, 288.15 K
measurement_kind: solubility (mole fraction)
Write the number on its own, no unit after it.

Query: For CC1=NN(c2ccccc2)C(=O)C1 , write its solubility (mole fraction).
Reply: 0.024

====

Conditions: in isopropyl acetate, 313.15 K
measurement_kind: solubility (mole fraction)
Provide a numeric answer; units are not to be included.

Query: Please give measured solubility (mole fraction) of the following entry: CC1=NN(c2ccccc2)C(=O)C1
Reply: 0.0265

====

Settings: in 2-butanone, 313.15 K
measurement_kind: solubility (mole fraction)
Write the number on its own, no unit after it.

Query: Read off the recorded solubility (mole fraction) for CC1=NN(c2ccccc2)C(=O)C1
Reply: 0.0678

====

Conditions: in ethyl lactate, 283.15 K
measurement_kind: solubility (mole fraction)
// response body must contain only the number

Query: Entry CC1=NN(c2ccccc2)C(=O)C1 needs its solubility (mole fraction) filled in; supply it.
Reply: 0.0293

====

Conditions: in ethyl lactate, 293.15 K
measurement_kind: solubility (mole fraction)
Write no unit; give the number alone.

Query: Fill in reported solubility (mole fraction) for this entry: CC1=NN(c2ccccc2)C(=O)C1
Reply: 0.0352
